// data source = PubChem BioAssay (NCI)

- System: MCF7 breast
- Assay procedure: NCI-60 one-dose screen, 48 h (100 = growth as untreated, 0 = no growth, -100 = all killed)
- Settings: 10 µM
Compounds without any hit were thinned out: in the full panel of roughly 83,000, 20% have a hit.
Cut-off 20% on growth, inclusive. At or above means met; below means not met.

>>> category("CC(C)(C)OC(=O)N1CCc2c(sc3ncnc(N/N=C/c4ccccc4Br)c23)C1")
"not met"
>>> category("Cn1c2ccccc2c2c3[nH][nH]c(=O)c3c3c4ccccc4[nH]c3c21")
"not met"
>>> category("O=c1[nH]c(=O)n(C2C[C@H](O)[C@@H](CO)O2)cc1C(F)(F)F (stereo partly specified)")
"met"
>>> category("C[C@@H](C[C@H](CCO)c1ccccc1)c1ccc2ccccc2c1")
"not met"
>>> category("CN(C)CCCOc1ccccc1NC1=C(Cl)C(=O)C(Nc2ccccc2OCCCN(C)C)=C(Cl)C1=O")
"not met"
>>> category("CC(=O)[C@@]12O[C@](C)(c3ccccc3)O[C@@H]1CC1C3CCC4=CC(=O)CC[C@]4(C)C3CC[C@@]12C (stereo partly specified)")
"met"
>>> category("COc1ccc(C(=O)CC(CC(=O)c2ccc(OC)cc2)c2c(C)nn(-c3ccccc3)c2Cl)cc1")
"met"
>>> category("CC(=O)OC1C=CC(OC(C)=O)O1 (stereo unspecified)")
"met"
>>> category("COc1ccc(-c2onc(N)c2-c2cc(OC)c3c(c2)OCO3)cc1")
"not met"
>>> category("COc1cc2cc(Oc3ccc(NC(=O)c4ccc(Cl)c(C(F)(F)F)c4)cc3)c(C)nc2cc1OC")
"met"
>>> category("CN(C)c1ccc(/C=N/NC(=O)c2cccc3ccccc23)c(Cl)c1")
"not met"
>>> category("CCn1cc(C(=O)O)c(=O)c2cc(F)c(N3CCNCC3)cc21")
"met"
>>> category("O=C(COc1cccc(/C=C2\\CSc3ccc(Cl)cc3C2=O)c1)c1ccc(Cl)cc1")
"not met"
>>> category("CN(C)CCCOc1ccc(OCCCN(C)C)c2c1C(=O)c1ccccc1C2=O")
"not met"
>>> category("O=C(CSc1nccc(Nc2cccc3ccccc23)n1)c1ccc(Cl)cc1")
"met"
>>> category("CCCCc1oc2ccccc2c1C(=O)c1cc(I)c(OCCN(CC)CC)c(I)c1")
"not met"
>>> category("CC(=O)[C@H]1CC[C@]2(C)[C@@H]1CC[C@@H]1[C@@]3(C)CC(CCC#N)(CCC#N)C(=O)C(C)(C)[C@@H]3CC[C@]12C")
"met"
>>> category("O=C(CI)OCC(COC(=O)CI)OC(=O)CI")
"met"
>>> category("O=S(=O)(O)c1ccc(Cl)cc1")
"met"
>>> category("COc1ccc2c(c1)OC(N)=C(C#N)C2c1cc(OC)c(OC)c(OC)c1 (stereo unspecified)")
"not met"
>>> category("O=C(N/N=C/c1cc([N+](=O)[O-])ccc1O)c1cccc2ccccc12")
"not met"
>>> category("O=C(Nc1ccc(F)cc1)c1cc2ccccc2cc1O")
"met"
>>> category("N#Cc1ccc(C(=O)CSc2nccc(Nc3ccc(C(=O)O)cc3)n2)cc1")
"met"
>>> category("C/C(=N\\O)c1ccc(NC(=O)CSc2nnc(-c3ccccc3)n2-c2ccccc2)cc1")
"met"
>>> category("O=C(NCCCNS(=O)(=O)c1ccc(Cl)cc1)Nc1ccc(-n2cc(-c3ccncc3)c(-c3ccc(Cl)c(O)c3)n2)cc1")
"not met"
>>> category("COc1cc(NC(=O)Nc2cnc(Nc3ccc(N4CCOCC4)cc3)nc2Oc2cccc(OC)c2)cc(OC)c1")
"met"
>>> category("Cc1ccc2nc(Cl)c(-c3nc4ccccc4o3)cc2c1")
"met"
>>> category("O=C(/C=C/c1cccc(B(O)O)c1)c1cccc(B(O)O)c1")
"not met"
>>> category("CCn1c(SCc2ccc(C)cc2)nnc1-c1nn(-c2ccc(Cl)cc2Cl)c(-c2ccc(Cl)cc2)c1C")
"not met"
>>> category("Cc1nn(-c2ccc(-c3ccc(OC(F)(F)F)cc3)cc2)c2nc(Cc3ccccc3)nc(N)c12")
"met"
>>> category("CN1CCN(CCC(=O)Nc2cccc(-n3cc(-c4ccncc4)c(-c4ccc(Cl)c(O)c4)n3)c2)CC1")
"not met"
>>> category("COc1ccc2c(c1)C(=O)/C(=C/c1cccc(OCC(=O)c3ccc([N+](=O)[O-])cc3)c1)CO2")
"not met"
>>> category("C/C=C/C1=CN2C(=O)c3cc(OC4OC(C)C(NC)C(C)(O)C4O)c(C)c(O)c3N=C[C@@H]2C1 (stereo partly specified)")
"not met"
>>> category("CCc1ccc(C2=NN(c3ccc(S(C)(=O)=O)cc3)C(=O)CC2)cc1")
"met"
>>> category("O=C(CCl)Nc1ccc(Cc2ccc(NC(=O)CCl)cc2)cc1")
"not met"
>>> category("Cc1cc(CSc2ccccc2C(=O)N2CC=C(c3ccccc3)CC2)on1")
"met"
>>> category("CCOS(=O)(=O)c1c(C(C)C)cc(C(C)C)cc1C(C)C")
"met"
>>> category("Nc1nccc(OCCO)n1")
"met"
>>> category("COc1ccc([C@H]2[C@H](C(=O)Nc3cccnc3)c3ccccc3C(=O)N2c2ccccc2)cc1")
"met"
>>> category("COC(=O)C1OC1c1cc([N+](=O)[O-])ccc1OC (stereo unspecified)")
"met"

###

- Test system: HCT-116 colon
- Assay procedure: NCI-60 one-dose screen, 48 h
- Settings: 10 µM
About 83,000 compounds went through this panel and 20% of them were active in at least one assay; those are over-represented in the sample as a whole. Calls of active or inactive are those of the source. How the source made its calls: active means growth percent below 10; inactive means the rest.
Possible outcomes: t (active), f (inactive)

>>> category("O=[N+]([O-])c1ccc(/C(=C/c2ccccc2)[n+]2ccccc2)cc1")
"f"
>>> category("Nc1ncc(-c2cnn(C3CCNCC3)c2)cc1-c1nc2ccccc2o1")
"t"
>>> category("Cc1c(C(N)=O)sc2c1c(=O)n(Cc1ccccc1)c1nnc(-c3ccc(Br)cc3)n21")
"f"
>>> category("O=S(=O)(Oc1ccc(-c2ccc3sccc3c2)cc1)c1ccccc1")
"f"
>>> category("CCCCC(CC)CN=C(N)NC(N)=NCCCCCCN=C(N)NC(N)=NCC(CC)CCCC (stereo not given)")
"t"

###

List of growth values.
- Test system: SF-539 CNS
- Assay procedure: NCI-60 one-dose screen, 48 h (100 = growth as untreated, 0 = no growth, -100 = all killed)
- Settings: 10 µM
This is part of a sample that, as a whole, favours compounds with a hit. Of some 83,000 tested, about 20% had one in any assay.
Assay readout: growth (%)

>>> measurement("COC(=O)c1c[nH]c2cc(OC(C)C)c(OC(C)C)cc2c1=O")
91
>>> measurement("CC(=O)Nc1ccc(S(=O)(=O)c2ccnc3cc(Cl)ccc23)cc1")
99.5
>>> measurement("Cn1cnc([N+](=O)[O-])c1/C=C1\\Oc2ccc(Br)cc2C1=O")
104
>>> measurement("CS(=O)(=O)c1nccc(-c2c(-c3cccc(OCCc4ccccc4)c3)nc3sccn23)n1")
103
>>> measurement("COc1ccc(C2=Cn3c(CCC(=O)c4nc5ccccc5[nH]4)nnc3SC2)cc1")
92

###

- System: OVCAR-3 ovarian
- Assay procedure: NCI-60 one-dose screen, 48 h (100 = growth as untreated, 0 = no growth, -100 = all killed)
- Settings: 10 µM
This is part of a sample that, as a whole, favours compounds with a hit. Of some 83,000 tested, about 20% had one in any assay.
Assay readout: growth (%)

>>> measurement("CC(=O)[C@@]12O[C@](C)(c3ccccc3)O[C@@H]1CC1C3CCC4=CC(=O)CC[C@]4(C)C3CC[C@@]12C (stereo partly specified)")
54.3
>>> measurement("Cc1c(Cl)cccc1NC(=O)CN1CCOCC1")
107
>>> measurement("N#CCc1csc(Cc2ccccc2)n1")
106
>>> measurement("CC(C)c1cc(N=O)cc(C(C)C)c1O")
110
>>> measurement("O=C1CSC(=S)N1/N=C/c1ccc(Cl)s1")
104
>>> measurement("CCCCN(CCCC)C(=O)[C@H](CC)[C@@H]1CC[C@@H](C)[C@@H]([C@H](C)[C@@H](O)[C@@H](C)C(=O)[C@H](CC)C2O[C@]3(C=C[C@@H](O)[C@]4(CC[C@@](C)([C@H]5CC[C@](O)(CC)[C@H](C)O5)O4)O3)[C@H](C)C[C@@H]2C)O1 (stereo partly specified)")
4.13

###

- System: SK-OV-3 ovarian
- Assay procedure: NCI-60 one-dose screen, 48 h
- Settings: 10 µM
- Method: Growth inhibition of the SK-OV-3 human tumor cell line is measured as a screen for anti-cancer activity. Cells are grown in 96 well plates and exposed to the test compound for 48 hours. Compounds are tested at a single concentration, which is 10^-5 M for most compounds. The reported endpoint is percent growth (GI% or GIPRCNT), where numbers from 0 - 100% represent growth inhibition, and numbers from -100% - 0 represent cell death. For example, a value of 40 represents 60% growth inhibition. […]
This is part of a sample that, as a whole, favours compounds with a hit. Of some 83,000 tested, about 20% had one in any assay. The source made the active and inactive calls. The calls were made as follows: active = growth percent below 10; inactive = the rest.
Possible outcomes: active, inactive

>>> category("O=C(CCCSc1nc(-c2ccccc2)cc(-c2ccc(Cl)cc2)n1)NO")
"inactive"
>>> category("OC(CCN1CCCC1)(c1ccccc1)C1CCCCC1 (stereo not given)")
"inactive"
>>> category("COc1ccc(C(=O)N2C=Cc3ccccc3C2C#N)cc1 (stereo not given)")
"inactive"
>>> category("Cc1cccc(N=Cc2ccccc2O)c1C")
"inactive"
>>> category("CN(C)CCOc1cccc(NC2=C(Cl)C(=O)C(Nc3cccc(OCCN(C)C)c3)=C(Cl)C2=O)c1")
"inactive"
>>> category("COc1ccc(-c2nn(-c3cccc(Cl)c3)cc2-c2nc(N)[nH]c(=O)c2C#N)cc1")
"inactive"
>>> category("Nc1ccc(CC[C@H]2CCC/C=C/[C@@H]3C[C@H](O)C[C@H]3[C@H](O)/C=C/C(=O)O2)cc1")
"inactive"
>>> category("Cc1ccc(N=Nc2ccccc2)cc1")
"inactive"
>>> category("CCCCC/C=C/C/C=C/CCCCCCCC1=NC(C)(C)CN1C(C)C")
"inactive"
>>> category("C=CCn1c(SCC(=O)Nc2ccc(C(=O)/C=C/c3cc(OC)c(OC)c(OC)c3)cc2)nnc1-c1cc(-c2ccc(Cl)cc2)nc2ccccc12")
"inactive"
>>> category("CCN(CC)CCCOc1cccc2c1C(=O)c1cccc(OCCCN(CC)CC)c1C2=O")
"inactive"
>>> category("COc1cc(C)ccc1Oc1nc(Nc2ccc(N3CCOCC3)cc2)ncc1NC(=O)Nc1cc(C(F)(F)F)cc(C(F)(F)F)c1")
"inactive"
>>> category("CN(C)CCOc1cccc(-c2nc3sccn3c2-c2ccnc(S(C)(=O)=O)n2)c1")
"inactive"
>>> category("CSc1nc(S(C)(=O)=O)nc2[nH]c(=O)[nH]c12")
"inactive"
>>> category("CCN(CC)CCNc1ccc(C)c2sc3cc(Cl)ccc3c(=O)c12")
"inactive"
>>> category("Nc1c(Br)cc(Br)c2c1[nH]c(=O)c1ccccc12")
"inactive"
>>> category("COc1ccc(/C=C2\\CCCC3=C2NC(N)=NC3c2ccc(OC)cc2)cc1 (stereo not given)")
"inactive"
>>> category("C/C(=C/CCC(C)[C@@H]1CC[C@]2(C)C3=C(CC[C@@]12C)[C@@]1(C)CCC(=O)C(C)(C)[C@@H]1CC3)C(=O)O (stereo not given in full)")
"active"
>>> category("C#CC(C)(O)[C@@H]1C[C@H](CC(=O)O)C1(C)C (stereo not given in full)")
"inactive"
>>> category("C=CCn1c(SCC(=O)Nc2ccc(C(=O)/C=C/c3ccc(OC)cc3)cc2)nnc1-c1ccc(OC)c(OC)c1")
"inactive"
